- Tested on: T1, full-length human PD-L1 on K562 cells (human, UniProt Q9NZQ7 19-290)
- T1 construct: also called PD-L1/K562; cell surface human PD-L1
- T1 sequence (Q9NZQ7 19-290 limits assumed): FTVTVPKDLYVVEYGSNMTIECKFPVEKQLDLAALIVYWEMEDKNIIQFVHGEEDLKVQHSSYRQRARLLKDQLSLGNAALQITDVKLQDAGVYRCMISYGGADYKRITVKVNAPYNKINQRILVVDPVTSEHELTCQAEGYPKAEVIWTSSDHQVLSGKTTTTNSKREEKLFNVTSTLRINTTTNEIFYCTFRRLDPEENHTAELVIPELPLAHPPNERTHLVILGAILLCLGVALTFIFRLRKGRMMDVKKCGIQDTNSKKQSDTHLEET
- Assay comment: FACS, PD-L1/K562 cells
pEC50: −log10 of the molar value.

- Binder: "2018EP171-H02 scFv (scFv, V domains shown) VH: QVQLVQSGAEVKKPGSSVKVSCKASGGTFSSYAISWVRQAPGQGLEWMGGIIPIFGTANYAQKFQGRVTITADESTSTAYMELSSLRSEDTAVYYCARDKGYGSGWRGDYWGQGTLVTVSS VL: QSVLTQPPSASGTPGQRVTISCSGSYSNIGSNFVNWYQQLPGTAPKLLIHFNNQRPSGVPDRFSGSRSGTSASLAISGLQSEDEADYFCSTWDDSLKGPIFGGGTKLTVL"
  Relation: "="
  pEC50: 9.60
- Binder: "2018EP280-E04 scFv (scFv, V domains shown, not shown: scFv linker and domain order of the library scFv) VH: QVQLQQWGAGLLKPSETLSLTCAVYGGSFSGYYWSWIRQPPGKGLEWIGEINHIGSTNYNPSLKSRVTISVDTSNNQFSLKLSSVTAADTAVYYCARGRRLRYFDWAAYNWFDPWGQGTLVTVSS VL: QSALTQDPAVSVALGQTVRISCQGDSLRSHYASWYQQKPGQAPVVVVYDNSDRPSGIPDRFSGSNSGNTATLTISRVEVGDEADYYCQVWDSSSDHYVFGTGTKVTVL"
  Relation: "="
  pEC50: 8.26
- Binder: "2018EP172-F10 scFv (scFv, V domains shown) VH: QMQLVQSGAEVKKPGSSVKVSCKASGGTFSSYAISWVRQAPGQGLEWMGGIIPIFGTANYAQKFQGRVTITADESTSTAYMELSSLRSEDTAVYYCARDKGYGSGWRGDYWGQGTLVTVSS VL: QSVLTQPPSASGTPGQRVTISCSGSYSNIGSNFVNWYQQLPGTAPKLLIHFDNQRPSGVPDRFSGSRSGTSASLAISGLQSEDEADYFCSTWDDSLKGPIFGGGTKLTVL"
  Relation: ">"
  pEC50: 9.00
- Binder: "2018EP164-F04 scFv (scFv, V domains shown) VH: QVQLQQWGAGLLKPSETLSLTCAVYGGSFSGYYWSWIRQPPGKGLEWIGEINHSGSTNYNPSLKSRVTISVDTSKNQFSLKLSSVTAADTAVYYCARGRRLRYFDWAAYNWFDPWGQGTLVTVSS VL: QSALTQDPAVSVALGQTVRITCQGDSLRSHYASWYQQKPGQAPVVVVYDNSDRPSGIPDRFSGSNSGNTATLTISRVEVGDEADYYCQVWDSSSDHYVFGTGTKV"
  Relation: ">"
  pEC50: 9.00
